These entries and their values trace back to ChEMBL document CHEMBL3108686.

Would you mind telling me the reported pIC50 of each entry?
- Test system: A549
- experimental-details: cells
- measurement-setup: Homo sapiens, A549, 48 h
- Description: Cytotoxicity against human A549 cells assessed as cell viability after 48 hrs by MTT assay
pIC50: −log10 of the molar value.

query: Query pIC50 for CC(C)(O)[C@H]1CC[C@@](C)([C@H]2CC[C@]3(C)[C@@H]2CC[C@@H]2[C@@]4(C)CC[C@@H](O)C(C)(C)[C@@H]4CC[C@]23C)O1
result: < 4.30

query: Consider the compound CC(C)(O)[C@H]1CC[C@@](C)([C@H]2CC[C@]3(C)[C@@H]2CC[C@@H]2[C@@]4(C)CCC(=O)[C@@](C)(CO)[C@@H]4CC[C@]23C)O1 . State its measured pIC50.
result: < 4.30

query: Specify pIC50 for CC(C)(O)[C@@H]1CC[C@@](C)([C@H]2CC[C@]3(C)[C@@H]2CC[C@@H]2[C@@]4(C)CC[C@@H](O)[C@@](C)(CO)[C@@H]4CC[C@]23C)O1 and stop.
result: < 4.30

* * *

- Tested on: HepG2
- experimental-details: Cytotoxicity against human HepG2 cells assessed as cell viability after 48 hrs by MTT assay
- Type: functional, cell-based
- measurement-setup: HepG2, 48 h
Please provide measured IC50 for the entries that follow.

query: Lab note: HepG2 assay, enter IC50 for CC(C)(O)[C@@H]1CC[C@@](C)([C@H]2CC[C@]3(C)[C@@H]2CC[C@@H]2[C@@]4(C)CC[C@@H](O)C(C)(C)[C@@H]4CC[C@]23C)O1 here
result: > 50 µM

query: Report the value of IC50 obtained on HepG2 for CC(C)(O)[C@@H]1CC[C@@](C)([C@H]2CC[C@]3(C)[C@@H]2CC[C@@H]2[C@@]4(C)CCC(=O)[C@](C)(CO)[C@@H]4CC[C@]23C)O1 .
result: > 50 µM

query: Return reported IC50 for target or system HepG2, item CC(C)(O)[C@H]1CC[C@@](C)([C@H]2CC[C@]3(C)[C@@H]2CC[C@@H]2[C@@]4(C)CCC(=O)[C@@](C)(CO)[C@@H]4CC[C@]23C)O1 .
result: > 50 µM

query: Write down measured IC50 (HepG2) for this compound. CCOC(=O)CC[C@@]1(C)[C@H]([C@](C)(O)CO)CC[C@]2(C)[C@@H]1CC[C@@H]1[C@@H]([C@]3(C)CC[C@H](C(C)(C)O)O3)CC[C@]12C
result: > 50 µM

query: System HepG2. Read-out IC50. Item C=C(C)[C@@H]1CC[C@]2(C)[C@H](CC[C@@H]3[C@@H]([C@]4(C)CCC(=O)O4)CC[C@]32C)[C@@]1(C)CCC(=O)OC . Report value.
result: > 50 µM

query: Give the observed IC50 of C=C(CO)[C@@H]1CC[C@]2(C)[C@H](CC[C@@H]3[C@@H]([C@]4(C)CC[C@@H](C(C)(C)O)O4)CC[C@]32C)[C@@]1(C)CCC(=O)OC for HepG2.
result: 28 µM

query: Give HepG2 IC50 for the following compound: CC(C)(O)[C@H]1CC[C@@](C)([C@H]2CC[C@]3(C)[C@@H]2CC[C@@H]2[C@@]4(C)CC[C@@H](O)C(C)(C)[C@@H]4CC[C@]23C)O1
result: > 50 µM

query: State IC50 on HepG2. Entry: C=C(C)[C@@H]1CC[C@]2(C)[C@H](CC[C@@H]3[C@@H]([C@]4(C)CC[C@H](C(C)(C)O)O4)CC[C@]32C)[C@@]1(C)CCC(=O)OC [METHYL SHOREATE]
result: 6.3 µM

query: Please indicate recorded IC50 of C=C(C)[C@@H]1CC[C@]2(C)[C@H](CC[C@@H]3[C@@H]([C@]4(C)CC[C@H](O)C(C)(C)O4)CC[C@]32C)[C@@]1(C)CCC(=O)OC measured with HepG2.
result: > 50 µM

query: Given CC1(C)C(=O)CC[C@]2(C)[C@H]3CC[C@@H]4[C@@H]([C@]5(C)CCC(=O)O5)CC[C@@]4(C)[C@]3(C)CC[C@@H]12 , report its IC50 on HepG2.
result: > 50 µM

query: Give HepG2 IC50 for the following compound: CCOC(=O)CC[C@@]1(C)[C@H]([C@](C)(O)CO)CC[C@]2(C)[C@@H]1CC[C@@H]1[C@@H]([C@]3(C)CC[C@@H](C(C)(C)O)O3)CC[C@]12C
result: > 50 µM

* * *

For each of the compounds below, state its pIC50.
- Test system: HepG2
- experimental-details: Cytotoxicity against human HepG2 cells assessed as cell viability after 48 hrs by MTT assay
- Assay type: functional, cell-based
- measurement-setup: HepG2, 48 h
pIC50: −log10 of the molar value.

query: Provide measured pIC50 value, entry: C=C(C)[C@@H]1CC[C@]2(C)[C@H](CC[C@@H]3[C@@H]([C@]4(C)CC[C@@H](C(C)(C)O)O4)CC[C@]32C)[C@@]1(C)CCC(=O)OC
result: < 4.30

query: Give the measured pIC50 for C=C(C)[C@@H]1CC[C@]2(C)[C@H](CC[C@@H]3[C@@H]([C@]4(C)CCC(=O)O4)CC[C@]32C)[C@@]1(C)CCC(=O)OCC
result: 4.42

query: Read the entry CC(C)(O)[C@@H]1CC[C@@](C)([C@H]2CC[C@]3(C)[C@@H]2CC[C@@H]2[C@@]4(C)CCC(=O)C(C)(C)[C@@H]4C[C@H](O)[C@]23C)O1 and write its reported pIC50.
result: < 4.30

query: Determine its reported pIC50: CC1(C)[C@H](O)CC[C@]2(C)[C@H]3CC[C@@H]4[C@@H]([C@]5(C)C=CC(=O)O5)CC[C@@]4(C)[C@]3(C)CC[C@@H]12
result: < 4.30

query: Supply reported pIC50 belonging to this compound: CC(C)(O)[C@H]1CC[C@@](C)([C@H]2CC[C@]3(C)[C@@H]2CC[C@@H]2[C@@]4(C)CC[C@@H](O)[C@@](C)(CO)[C@@H]4CC[C@]23C)O1
result: < 4.30

query: Provide only the value of recorded pIC50 for CCOC(=O)CC[C@@]1(C)[C@H]([C@@](C)(O)CO)CC[C@]2(C)[C@@H]1CC[C@@H]1[C@@H]([C@]3(C)CC[C@@H](C(C)(C)O)O3)CC[C@]12C
result: < 4.30

query: Supply recorded pIC50 for C=C(C)[C@@H]1CC[C@]2(C)[C@H](CC[C@@H]3[C@@H]([C@]4(C)CCC(=O)O4)CC[C@]32C)[C@@]1(C)CCC(=O)O here.
result: < 4.30

query: Identify measured pIC50 corresponding to CC(C)(O)[C@@H]1CC[C@@](C)([C@H]2CC[C@]3(C)[C@@H]2CC[C@@H]2[C@@]4(C)CCC(=O)[C@@](C)(CO)[C@@H]4CC[C@]23C)O1
result: 5.19

query: Provide only the value of recorded pIC50 for CC1(C)C(=O)CC[C@]2(C)[C@H]3CC[C@@H]4[C@@H]([C@]5(C)C[C@H](O)C(=O)O5)CC[C@@]4(C)[C@]3(C)CC[C@@H]12
result: 5.10

* * *

- System: MCF7
- experimental-details: Cytotoxicity against human MCF7 cells assessed as cell viability after 48 hrs by MTT assay
- Assay type: functional, cell-based
- measurement-setup: MCF7, 48 h
I'd appreciate it if you could supply IC50 values for the items below.

query: Retrieve IC50 measured for C=C(C)[C@@H]1CC[C@]2(C)[C@H](CC[C@@H]3[C@@H]([C@]4(C)CCC(=O)O4)CC[C@]32C)[C@@]1(C)CCC(=O)OCC and print it.
result: > 50 µM

query: Identify measured IC50 corresponding to C=C(C)[C@@H]1CC[C@]2(C)[C@H](CC[C@@H]3[C@@H]([C@]4(C)CCC(=O)O4)CC[C@]32C)[C@@]1(C)CCC(=O)OC
result: > 50 µM

query: Retrieve IC50 measured for CC(C)(O)[C@@H]1CC[C@@](C)([C@H]2CC[C@]3(C)[C@@H]2CC[C@@H]2[C@@]4(C)CCC(=O)[C@](C)(CO)[C@@H]4CC[C@]23C)O1 and print it.
result: > 50 µM

* * *

- Tested on: A549
- experimental-details: cells
- measurement-setup: Homo sapiens, A549, 48 h
readout-label: IC50

query: Give the reported IC50 for this molecule. C=C(CC[C@H](O)C(C)(C)O)[C@H]1CC[C@]2(C)[C@@H]1CC[C@@H]1[C@@]3(C)CC[C@@H](O)C(C)(C)[C@@H]3CC[C@]12C
result: 35 µM

query: Specify reported IC50 for the molecule shown: C=C(CO)[C@@H]1CC[C@]2(C)[C@H](CC[C@@H]3[C@@H]([C@]4(C)CC[C@@H](C(C)(C)O)O4)CC[C@]32C)[C@@]1(C)CCC(=O)OC
result: > 50 µM

query: Tell us which IC50 value is on record for CCOC(=O)CC[C@@]1(C)[C@H]([C@](C)(O)CO)CC[C@]2(C)[C@@H]1CC[C@@H]1[C@@H]([C@]3(C)CC[C@H](C(C)(C)O)O3)CC[C@]12C
result: > 50 µM

query: Read off the recorded IC50 for C=C(C)[C@@H]1CC[C@]2(C)[C@H](CC[C@@H]3[C@@H]([C@]4(C)CC[C@H](C(C)(C)O)O4)CC[C@]32C)[C@@]1(C)CCC(=O)OC [METHYL SHOREATE]
result: 12.9 µM

query: Supply IC50 value. Item: C=C(C)[C@@H]1CC[C@]2(C)[C@H](CC[C@@H]3[C@@H]([C@]4(C)CCC(=O)O4)CC[C@]32C)[C@@]1(C)CCC(=O)OCC
result: > 50 µM

query: Tell me IC50 reported for C=C(C)[C@@H]1CC[C@]2(C)[C@H](CC[C@@H]3[C@@H]([C@]4(C)CC[C@@H](C(C)(C)O)O4)CC[C@]32C)[C@@]1(C)CCC(=O)OC
result: > 50 µM

query: Please give measured IC50 of the following entry: CC(C)(O)[C@@H]1CC[C@@](C)([C@H]2CC[C@]3(C)[C@@H]2CC[C@@H]2[C@@]4(C)CCC(=O)[C@](C)(CO)[C@@H]4CC[C@]23C)O1
result: > 50 µM
